# assay.system: Aurora A (Homo sapiens)
# Sequence (O14965 whole entry): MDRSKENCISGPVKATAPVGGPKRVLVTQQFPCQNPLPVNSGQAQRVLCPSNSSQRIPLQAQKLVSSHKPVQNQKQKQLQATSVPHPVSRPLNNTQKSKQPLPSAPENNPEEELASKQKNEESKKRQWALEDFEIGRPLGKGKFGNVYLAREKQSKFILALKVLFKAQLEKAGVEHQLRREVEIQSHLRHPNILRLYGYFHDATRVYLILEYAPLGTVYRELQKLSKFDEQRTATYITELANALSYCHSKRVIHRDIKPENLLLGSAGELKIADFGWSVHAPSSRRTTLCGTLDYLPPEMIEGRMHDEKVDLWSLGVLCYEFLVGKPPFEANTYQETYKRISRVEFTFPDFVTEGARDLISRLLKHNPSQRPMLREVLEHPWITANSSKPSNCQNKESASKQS
# measurement.protocol: Aurora A enzymatic activity test, FAM-labeled peptide, Caliper
# Assay type: biochemical
# experimental.parameters: FAM-labeled peptide substrate, read-out: Kinase-inhibiting activity IC50 Aurora A
pIC50: −log10 of the molar value.
readout.label: pIC50

The examples below pair each entry with its known result.
[
  {
    "compound": "Cc1[nH]nc2c1N=C(c1ccccc1Cl)c1cnc(N3CCS(=O)(=O)CC3)cc1N2 [Compound 34]",
    "pIC50": 8.89
  },
  {
    "compound": "Cc1[nH]nc2c1N=C(c1ccccc1Cl)c1cnc(N3CC4(COC4)C3)cc1N2 [Compound 48]",
    "pIC50": 8.85
  },
  {
    "compound": "Cc1[nH]nc2c1N=C(c1ccccc1Cl)c1cnc(N3CCN(C)[C@H](C)C3)cc1N2 [Compound 42]",
    "pIC50": 8.52
  }
]

P = Cc1[nH]nc2c1N=C(c1ccccc1Cl)c1cnc(CN3CCNCC3)cc1N2 [Compound 38]
Q = Cc1[nH]nc2c1N=C(c1ccccc1Cl)c1cnc(N3CCOCC3)cc1N2 [Compound 29]
R = Cc1[nH]nc2c1N=C(c1ccccc1Cl)c1cnc(N3CCN(C)CC3)cc1N2 [Compound 22]
### Prompt Rank ascending by pIC50. The reply should contain the labels ordered as requested.
### Response P, R, Q

1 = Cc1[nH]nc2c1N=C(c1ccccc1Cl)c1cnc(N3C[C@@H](C)N(C)[C@@H](C)C3)cc1N2 [Compound 41]
2 = CCN1CCN(Cc2cc3c(cn2)C(c2ccccc2Cl)=Nc2c(n[nH]c2C)N3)CC1 [Compound 33]
### Prompt When 1 and 2 are compared, which has the higher number for pIC50? // respond with label for picked entry
### Response 2

====

# assay.system: Aurora B (Homo sapiens, UniProt Q96GD4)
# Sequence (Q96GD4 whole entry): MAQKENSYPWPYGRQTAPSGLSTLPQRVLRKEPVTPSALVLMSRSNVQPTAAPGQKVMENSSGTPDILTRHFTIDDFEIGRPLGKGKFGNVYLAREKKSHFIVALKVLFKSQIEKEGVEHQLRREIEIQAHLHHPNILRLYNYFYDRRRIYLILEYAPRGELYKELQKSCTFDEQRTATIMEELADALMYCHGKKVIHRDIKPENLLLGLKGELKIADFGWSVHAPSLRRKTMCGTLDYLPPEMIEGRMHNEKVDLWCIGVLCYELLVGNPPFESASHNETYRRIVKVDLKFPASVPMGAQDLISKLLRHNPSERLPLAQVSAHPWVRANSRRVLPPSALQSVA
# measurement.protocol: Aurora B enzymatic activity test, FAM-labeled peptide, Caliper
# Assay type: biochemical
# experimental.parameters: FAM-labeled peptide substrate, read-out: Kinase-inhibiting activity IC50 Aurora B
readout.label: IC50 (nM)

The examples below pair each entry with its known result.
[
  {
    "compound": "Cc1[nH]nc2c1N=C(c1ccccc1Cl)c1cnc(N3CCN(C)CC3)cc1N2",
    "assay.system": "Aurora B (Homo sapiens, UniProt Q96GD4)",
    "IC50, nM": 7.1
  },
  {
    "compound": "Cc1[nH]nc2c1N=C(c1ccccc1Cl)c1cnc(N3C[C@@H](C)N(C)[C@@H](C)C3)cc1N2",
    "assay.system": "Aurora B (Homo sapiens, UniProt Q96GD4)",
    "IC50, nM": 24
  },
  {
    "compound": "Cc1[nH]nc2c1N=C(c1ccccc1Cl)c1cnc(N3CCNCC3)cc1N2",
    "assay.system": "Aurora B (Homo sapiens, UniProt Q96GD4)",
    "IC50, nM": 8.8
  },
  {
    "compound": "Cc1[nH]nc2c1N=C(c1ccccc1Cl)c1cnc(N3CCN(C4CC4)CC3)cc1N2",
    "assay.system": "Aurora B (Homo sapiens, UniProt Q96GD4)",
    "IC50, nM": 6.8
  },
  {
    "compound": "Cc1[nH]nc2c1N=C(c1ccccc1Cl)c1cnc(N3CC4COCC4C3)cc1N2 (centres unmarked)",
    "assay.system": "Aurora B (Homo sapiens, UniProt Q96GD4)",
    "IC50, nM": 3.1
  },
  {
    "compound": "Cc1[nH]nc2c1N=C(c1ccccc1Cl)c1cnc(N3CC4(COC4)C3)cc1N2",
    "assay.system": "Aurora B (Homo sapiens, UniProt Q96GD4)",
    "IC50, nM": 5.2
  }
]

1 = Cc1[nH]nc2c1N=C(c1ccccc1Cl)c1cnc(N3CCO[C@H](C)C3)cc1N2 (stereo in doubt)
2 = Cc1[nH]nc2c1N=C(c1ccccc1Cl)c1cnc(N3CCS(=O)(=O)CC3)cc1N2
### Prompt When 1 and 2 are compared, which has the higher number for IC50? // respond with label for picked entry
### Response 1
(1: 11 nM, 2: 7.5 nM)

====

# measurement.protocol: PK evaluation in beagle dogs
# Assay type: in vivo
# experimental.parameters: dog, plasma, po, orally 2 mg/kg single dose, read-out: AUCinf po
readout.label: AUC(0-inf) (ng·h/mL)
Give a bare numeral; the unit ng·h/mL is implied.

### Prompt Requested read-out: AUC(0-inf). Entry: Cc1[nH]nc2c1N=C(c1ccccc1Cl)c1cnc(N3CCOCC3)cc1N2 [Crystal form I of compound 29]
### Response 8600

====

# assay.system: KDR(VEGFR2) (Homo sapiens, UniProt P35968)
# Sequence (P35968 20-1356): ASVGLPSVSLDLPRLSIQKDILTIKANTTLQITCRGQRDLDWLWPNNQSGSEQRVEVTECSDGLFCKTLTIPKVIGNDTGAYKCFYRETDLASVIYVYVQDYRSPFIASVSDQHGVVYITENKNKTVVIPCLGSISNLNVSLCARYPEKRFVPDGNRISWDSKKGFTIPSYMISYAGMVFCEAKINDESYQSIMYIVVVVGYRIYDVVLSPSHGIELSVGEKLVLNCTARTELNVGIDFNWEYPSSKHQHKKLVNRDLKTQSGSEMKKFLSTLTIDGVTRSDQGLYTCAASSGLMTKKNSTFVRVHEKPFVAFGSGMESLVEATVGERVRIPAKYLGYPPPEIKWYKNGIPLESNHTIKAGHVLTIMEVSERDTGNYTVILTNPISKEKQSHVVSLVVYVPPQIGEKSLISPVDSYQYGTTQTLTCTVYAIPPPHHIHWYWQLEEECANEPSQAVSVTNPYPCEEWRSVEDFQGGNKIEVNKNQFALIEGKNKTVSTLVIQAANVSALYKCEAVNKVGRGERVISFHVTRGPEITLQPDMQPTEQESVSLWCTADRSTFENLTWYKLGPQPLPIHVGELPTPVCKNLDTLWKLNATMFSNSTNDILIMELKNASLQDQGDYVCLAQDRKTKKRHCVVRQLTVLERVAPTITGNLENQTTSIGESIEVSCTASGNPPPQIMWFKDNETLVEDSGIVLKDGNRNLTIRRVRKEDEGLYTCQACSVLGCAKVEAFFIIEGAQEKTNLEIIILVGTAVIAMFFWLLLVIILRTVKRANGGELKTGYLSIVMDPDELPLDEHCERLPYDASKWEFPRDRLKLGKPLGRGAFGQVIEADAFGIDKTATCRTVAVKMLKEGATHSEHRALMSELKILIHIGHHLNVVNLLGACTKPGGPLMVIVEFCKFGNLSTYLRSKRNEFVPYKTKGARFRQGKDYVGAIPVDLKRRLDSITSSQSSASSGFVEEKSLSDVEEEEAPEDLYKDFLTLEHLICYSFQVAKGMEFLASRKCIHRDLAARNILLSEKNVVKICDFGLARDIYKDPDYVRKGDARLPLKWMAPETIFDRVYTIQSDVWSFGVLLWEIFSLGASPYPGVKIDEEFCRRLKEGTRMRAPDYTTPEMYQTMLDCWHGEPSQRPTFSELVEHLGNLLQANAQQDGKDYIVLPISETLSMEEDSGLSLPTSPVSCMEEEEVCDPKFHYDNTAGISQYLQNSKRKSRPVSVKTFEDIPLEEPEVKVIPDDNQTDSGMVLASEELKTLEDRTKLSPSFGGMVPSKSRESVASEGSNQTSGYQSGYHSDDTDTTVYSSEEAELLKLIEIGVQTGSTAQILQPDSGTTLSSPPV
# measurement.protocol: KDR enzymatic activity test, FAM-labeled peptide, Caliper
# Type: biochemical
# experimental.parameters: FAM-labeled peptide substrate, read-out: Kinase-inhibiting activity IC50 KDR(VEGFR2)
readout.label: IC50 (nM)

A = CCc1cc2c(cn1)C(c1ccccc1Cl)=Nc1c(n[nH]c1C)N2 [Control drug 1-2, reference compound]
B = Cc1[nH]nc2c1N=C(c1ccccc1Cl)c1cnc(CN3CCOCC3)cc1N2
### Prompt Sorting ascending by IC50, which comes first: A or B ? // respond with label for picked entry
### Response A

A = Cc1[nH]nc2c1N=C(c1ccccc1Cl)c1cnc(N3CCOCC3)cc1N2
B = Cc1[nH]nc2c1N=C(c1ccccc1Cl)c1cnc(N3CC4COCC4C3)cc1N2 (centres unmarked)
C = Cc1[nH]nc2c1N=C(c1ccccc1Cl)c1cnc(N3CCS(=O)(=O)CC3)cc1N2
D = Cc1[nH]nc2c1N=C(c1ccccc1Cl)c1cnc(N3C[C@@H](C)N(C)[C@@H](C)C3)cc1N2
### Prompt # rank_down: sort by IC50, max first The reply should contain the labels ordered as requested.
### Response D, C, A, B

I = Cc1[nH]nc2c1N=C(c1ccccc1Cl)c1cnc(N3CCN(C)CC3)cc1N2
II = CCN1CCN(Cc2cc3c(cn2)C(c2ccccc2Cl)=Nc2c(n[nH]c2C)N3)CC1
### Prompt Sorting ascending by IC50, which comes first: I or II ? // respond with label for picked entry
### Response I
(I: 0.91 nM, II: 1.6 nM)

====

# Test system: TOV-112D ovarian cancer cells
# measurement.protocol: Cell proliferation, Cell Titer-Glo
# Assay type: cell-based
# experimental.parameters: Homo sapiens, TOV112D, 72 hours, read-out: Cellular inhibitory activity IC50 TOV-112D
readout.label: IC50 (µM)

[
  {
    "compound": "Cc1[nH]nc2c1N=C(c1ccccc1Cl)c1cnc(N3CCOCC3)cc1N2",
    "unit.name": "µM",
    "IC50": 0.955
  }
]

A = CCc1cc2c(cn1)C(c1ccccc1Cl)=Nc1c(n[nH]c1C)N2 [Control drug 1-2, reference compound]
B = Cc1[nH]nc2c1N=C(c1ccccc1Cl)c1cnc(N3CCN(C)CC3)cc1N2
### Prompt Sorting ascending by IC50, which comes first: A or B ? // respond with label for picked entry
### Response B
(B: 0.65 µM, A: 2.51 µM)

====

# assay.system: Aurora A (Homo sapiens)
# measurement.protocol: Aurora A kinase activity test, [γ-33P]-ATP filter membrane
# Format: biochemical
# experimental.parameters: 40 minutes at room temperature, read-out: Kinase-inhibiting activity IC50 Aurora A
# Experimental: Test samples: compounds 1 to 4 in the present invention (the sequence numbers and structures thereof are shown in Table 1), dilution concentration: 0.03 μM-3 μM, a total of 10 concentration gradients. Test method: enzymatic activity tests of Aurora kinase (including Aurora A and Aurora B) and VEGFR2 (KDR) were performed using a multi-function microplate reader. (1) Test for Aurora a Kinase Activity: […]
pIC50: −log10 of the molar value.
readout.label: pIC50

[
  {
    "compound": "Cc1[nH]nc2c1N=C(c1ccccc1Cl)c1cnc(OC3CCOC3)cc1N2 (stereo not shown) [Compound 4]",
    "assay.system": "Aurora A (Homo sapiens)",
    "pIC50": 8.40
  }
]

a = COc1cc2c(cn1)C(c1ccccc1Cl)=Nc1c(n[nH]c1C)N2 [Compound 3]
b = Cc1[nH]nc2c1N=C(c1ccccc1Cl)c1cnc(S(C)(=O)=O)cc1N2 [Compound 1]
### Prompt Sorting ascending by pIC50, which comes first: a or b ? // respond with label for picked entry
### Response b
(b: 7.92, a: 8.40)

====

# assay.system: KDR(VEGFR2) (Homo sapiens, UniProt P35968)
# measurement.protocol: KDR enzymatic activity test, FAM-labeled peptide, Caliper
# Type: biochemical
# experimental.parameters: FAM-labeled peptide substrate, read-out: Kinase-inhibiting activity IC50 KDR(VEGFR2)
readout.label: IC50 (nM)

[
  {
    "compound": "Cc1[nH]nc2c1N=C(c1ccccc1Cl)c1cnc(N3CCNCC3)cc1N2",
    "measured.value": 1.7
  },
  {
    "compound": "Cc1[nH]nc2c1N=C(c1ccccc1Cl)c1cnc(N3CCN(C4CC4)CC3)cc1N2",
    "measured.value": 1.5
  },
  {
    "compound": "Cc1[nH]nc2c1N=C(c1ccccc1Cl)c1cnc(N3CCN(C)[C@H](C)C3)cc1N2",
    "measured.value": 9.7
  },
  {
    "compound": "Cc1[nH]nc2c1N=C(c1ccccc1Cl)c1cnc(N3CCO[C@H](C)C3)cc1N2 (stereo in doubt)",
    "measured.value": 2.9
  },
  {
    "compound": "Cc1[nH]nc2c1N=C(c1ccccc1Cl)c1cnc(N3CC4CC3CO4)cc1N2 (centres unmarked)",
    "measured.value": 0.3
  }
]

P = Cc1[nH]nc2c1N=C(c1ccccc1Cl)c1cnc(N3CC4(COC4)C3)cc1N2
Q = Cc1[nH]nc2c1N=C(c1ccccc1Cl)c1cnc(CN3CCNCC3)cc1N2
### Prompt When P and Q are compared, which has the higher number for IC50? // respond with label for picked entry
### Response Q
